The entries below are paired with their reported cAMP EC50 (1.0% HSA).
# system: human GLP-1 receptor (human, UniProt P43220 24-463)
# test.details: cell-based or functional assay
*1 amine or outer side, *2 acyl side, *3 side chain or, on linkers, in order; H or OH if unused. Where no end group is shown, it is not given here. Side-chain parts run from the residue outwards. [ ]: non-standard residue; d: D form. The star is where a group is joined. Decanoyl(10-(4-HOOC-PhO)) = O=C(O)c1ccc(OCCCCCCCCCC(=O)*)cc1; αMePhe(2-F) = C[C@](N)(Cc1ccccc1F)C(=O)O; γGlu = O=C(O)[C@H](CCC(=O)[*:2])N[*:1]; C14 diacid = O=C(O)CCCCCCCCCCCCC(=O)*; αMeY = C[C@](N)(Cc1ccc(O)cc1)C(=O)O; αMeL = CC(C)C[C@](C)(N)C(=O)O; Nle = CCCC[C@H](N)C(=O)O; Orn = NCCC[C@H](N)C(=O)O; AEEA = NCCOCCOCC(=O)O; Aib = CC(C)(N)C(=O)O
attribute.measured: cAMP EC50 (1.0% HSA) (nM)

[
  {
    "binder": "YXEGTXTSDYXIXLDXKAQXKFIXXLIXGGPSSGAPPPS (Y-Aib-EGT-αMeF(2F)-TSDY-Aib-I-αMeL-LD-Orn-K((2-[2-(2-Amino-ethoxy)-ethoxy]-acetyl)2-(γ-Glu)-(10-(4-carboxyphenoxy)decanoyl))AQ-Aib-K((2-[2-(2-Amino-ethoxy)-ethoxy]-acetyl)2-(γ-Glu)-(10-(4-carboxyphenoxy)decanoyl))FI-(D-Glu)-αMeY-LI-Orn-GGPSSGAPPPS-NH2) [Example 409]",
    "unit.text": "nM",
    "measured.result": 8.05
  },
  {
    "binder": "YXEGTXTSDXXIXLDXKAQXKXIXXLIEGGPSSGAPPPS (not fully specified; Y-Aib-EGT-αMeF(2F)-TSD-4Pal-Aib-I-αMeL-LD-Orn-K((2-[2-(2-Amino-ethoxy)-ethoxy]-acetyl)2-(γ Glu)-CO-(CH2)10H3)AQ-Aib-K((2-[2-(2-Amino-ethoxy)-ethoxy]-acetyl)2-(γGlu)-CO-(CH2)10C3)-αMeFI-(D-Glu)-αMeY-LIEGGPSSGAPPPS-NH2) [Example 430]",
    "unit.text": "nM",
    "measured.result": 26.8
  },
  {
    "binder": "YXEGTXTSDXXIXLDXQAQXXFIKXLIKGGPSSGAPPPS (Y-Aib-EGT-αMeF(2F)-TSD-4Pal-Aib-I-αMeL-LD-Orn-QAQ-Aib-Orn-FIK(PEG5-(γ-Glu)-(10-(4-carboxyphenoxy)decanoyl))-αMeY-LIK(PEG5-(γ-Glu)-(10-(4-carboxyphenoxy)decanoyl))GGPSSGAPPPS-NH2) [Example 469]",
    "unit.text": "nM",
    "measured.result": 2.33
  },
  {
    "binder": "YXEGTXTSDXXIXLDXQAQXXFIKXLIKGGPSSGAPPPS (Y-Aib-EGT-αMeF(2F)-TSD-4Pal-Aib-I-αMeL-LD-Orn-QAQ-Aib-Orn-FIK(Ahx-(2-[2-(2-Amino-ethoxy)-ethoxy]-acetyl)-(γ-Glu)-(10-(4-carboxyphenoxy)decanoyl))-αMeY-LIK(Ahx-(2-[2-(2-Amino-ethoxy)-ethoxy]-acetyl)-(γ-Glu)-(10-(4-carboxyphenoxy)decanoyl))GGPSSGAPPPS-NH2) [Example 455]",
    "unit.text": "nM",
    "measured.result": 5.24
  },
  {
    "binder": "YXEGTXTSDXXIXLDXQAQXKFIXXLIEGGPSSGAPPPSK (Y-Aib-EGT-αMeF(2F)-TSD-4Pal-Aib-I-αMeL-LD-Orn-QAQ-Aib-K((2-[2-(2-Amino-ethoxy)-ethoxy]-acetyl)2-(γ-Glu)-CO-(CH2)12-CO2H)FI-(D-Glu)-αMeY-LIEGGPSSGAPPPSK((2-[2-(2-Amino-ethoxy)-ethoxy]-acetyl)2-(γ-Glu)-CO-(CH2)12-CO2H)-NH2) [Example 489]",
    "unit.text": "nM",
    "measured.result": 13.5
  },
  {
    "binder": "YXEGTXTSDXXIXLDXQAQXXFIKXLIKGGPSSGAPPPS (Y-Aib-EGT-αMeF(2F)-TSD-4Pal-Aib-I-αMeL-LD-Orn-QAQ-Aib-Orn-FIK((2-[2-(2-Amino-ethoxy)-ethoxy]-acetyl)-(γ-Glu)3-(10-(4-carboxyphenoxy)decanoyl))-αMeY-LIK((2-[2-(2-Amino-ethoxy)-ethoxy]-acetyl)-(γ-Glu)3--(10-(4-carboxyphenoxy)decanoyl))GGPSSGAPPPS-NH2) [Example 487]",
    "unit.text": "nM",
    "measured.result": 3.16
  },
  {
    "binder": "Y[Aib]EGT[αMePhe(2-F)]TSD[Nle]SI[αMeL]LD[Orn]QAQ[Aib][Orn]FIK([AEEA-AEEA-γGlu-C14 diacid])[αMeY]LIK([AEEA-AEEA-γGlu-C14 diacid])GGPSSGAPPPS-NH2 [Example 490]",
    "unit.text": "nM",
    "measured.result": 7.68
  },
  {
    "binder": "Y[Aib]EGT[αMePhe(2-F)]TSDV[Aib]I[αMeL]LD[Orn]K([AEEA-AEEA-Decanoyl(10-(4-HOOC-PhO))])AQ[Aib]EFI[dE][αMeY]LIK([AEEA-AEEA-Decanoyl(10-(4-HOOC-PhO))])GGPSSGAPPPS-NH2 [Example 397]",
    "unit.text": "nM",
    "measured.result": 7.17
  },
  {
    "binder": "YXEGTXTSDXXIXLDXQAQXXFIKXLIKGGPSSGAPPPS (Y-Aib-EGT-αMeF(2F)-TSD-4Pal-Aib-I-αMeL-LD-Orn-QAQ-Aib-Orn-FIK(PEG6-(γ-Glu)-CO-(CH2)12-CO2H)-αMeY-LIK(PEG6-(γ-Glu)-CO-(CH2)12-CO2H)GGPSSGAPPPS-NH2) [Example 466]",
    "unit.text": "nM",
    "measured.result": 3.32
  },
  {
    "binder": "YXEGTXTSDYXIXLDXQAQXXFIKXLIKGGPSSGAPPPS (Y-Aib-EGT-αMeF(2F)-TSDY-Aib-I-αMeL-LD-Orn-QAQ-Aib-Orn-FIK((2-[2-(2-Amino-ethoxy)-ethoxy]-acetyl)3-(γ-Glu)-CO-(CH2)12-CO2H)-αMeY-LIK((2-[2-(2-Amino-ethoxy)-ethoxy]-acetyl)3-(γ-Glu)-CO-(CH2)12-CO2H)GGPSSGAPPPS-NH2) [Example 479]",
    "unit.text": "nM",
    "measured.result": 2.55
  },
  {
    "binder": "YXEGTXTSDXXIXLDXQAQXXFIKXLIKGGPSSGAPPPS (Y-Aib-EGT-αMeF(2F)-TSD-4Pal-Aib-I-αMeL-LD-Orn-QAQ-Aib-Orn-FIK((γ-Glu)-(2-[2-(2-Amino-ethoxy)-ethoxy]-acetyl)2-(γ-Glu)-CO-(CH2)12-CO2H)-αMeY-LIK((γ-Glu)-(2-[2-(2-Amino-ethoxy)-ethoxy]-acetyl)2-(γ-Glu)-CO-(CH2)12-CO2H)GGPSSGAPPPS-NH2) [Example 482]",
    "unit.text": "nM",
    "measured.result": 4.85
  },
  {
    "binder": "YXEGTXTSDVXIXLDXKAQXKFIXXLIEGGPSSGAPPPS (Y-Aib-EGT-αMeF(2F)-TSDV-Aib-I-αMeL-LD-Orn-K((2-[2-(2-Amino-ethoxy)-ethoxy]-acetyl)2-CO-(CH2)12-CO2H)AQ-Aib-K((2-[2-(2-Amino-ethoxy)-ethoxy]-acetyl)2-CO-(CH2)12-CO2H)FI-(D-Glu)-αMeY-LIEGGPSSGAPPPS-NH2) [Example 386]",
    "unit.text": "nM",
    "measured.result": 17.7
  },
  {
    "binder": "YXEGTXTSDYXIXLDXQAQXEFIKXLIKGGPSSGAPPPS (Y-Aib-EGT-αMeF(2F)-TSDY-Aib-I-αMeL-LD-Orn-QAQ-Aib-EFIK((2-[2-(2-Amino-ethoxy)-ethoxy]-acetyl)2-(γ-Glu)-CO-(CH2)12-CO2H)-αMeY-LIK((2-[2-(2-Amino-ethoxy)-ethoxy]-acetyl)2-(γ-Glu)-CO-(CH2)12-CO2H)GGPSSGAPPPS-NH2) [Example 412]",
    "unit.text": "nM",
    "measured.result": 18.3
  },
  {
    "binder": "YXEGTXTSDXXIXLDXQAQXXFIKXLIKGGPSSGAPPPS (Y-Aib-EGT-αMeF(2F)-TSD-4Pal-Aib-I-αMeL-LD-Orn-QAQ-Aib-Orn-FIK((2-[2-(2-Amino-ethoxy)-ethoxy]-acetyl)2-(γ-Glu)2--(10-(4-carboxyphenoxy)decanoyl))-αMeY-LIK((2-[2-(2-Amino-ethoxy)-ethoxy]-acetyl)2-(γ-Glu)2--(10-(4-carboxyphenoxy)decanoyl))GGPSSGAPPPS-NH2) [Example 475]",
    "unit.text": "nM",
    "measured.result": 1.44
  },
  {
    "binder": "Y[Aib]EGT[αMePhe(2-F)]TSDV[Aib]I[αMeL]LD[Orn]IAQ[Aib]K([AEEA-γGlu-Decanoyl(10-(4-HOOC-PhO))])FI[dE][αMeY]LIK([AEEA-γGlu-Decanoyl(10-(4-HOOC-PhO))])GGPSSGAPPPS-NH2 [Example 382]",
    "unit.text": "nM",
    "measured.result": 204
  },
  {
    "binder": "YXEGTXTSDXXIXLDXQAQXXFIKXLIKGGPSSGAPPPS (Y-Aib-EGT-αMeF(2F)-TSD-4Pal-Aib-I-αMeL-LD-Orn-QAQ-Aib-4Pal-FIK((2-[2-(2-Amino-ethoxy)-ethoxy]-acetyl)2-(γ-Glu)-CO-(CH2)12-CO2H)-αMeY-LIK((2-[2-(2-Amino-ethoxy)-ethoxy]-acetyl)2-(γ-Glu)-CO-(CH2)12-CO2H)GGPSSGAPPPS-NH2) [Example 444]",
    "unit.text": "nM",
    "measured.result": 7.51
  },
  {
    "binder": "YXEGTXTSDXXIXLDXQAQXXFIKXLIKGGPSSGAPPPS (Y-Aib-EGT-αMeF(2F)-TSD-4Pal-Aib-I-αMeL-LD-Orn-QAQ-Aib-Orn-FIK(PEG3-(γ-Glu)-CO-(CH2)12-CO2H)-αMeY-LIK(PEG3-(γ-Glu)-CO-(CH2)12-CO2H)GGPSSGAPPPS-NH2) [Example 458]",
    "unit.text": "nM",
    "measured.result": 7.61
  },
  {
    "binder": "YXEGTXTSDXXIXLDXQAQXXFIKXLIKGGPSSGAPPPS (Y-Aib-EGT-αMeF(2F)-TSD-4Pal-Aib-I-αMeL-LD-Orn-QAQ-Aib-Orn-FIK((2-[2-(2-Amino-ethoxy)-ethoxy]-acetyl)2--Trx-(γ-Glu)-(10-(4-carboxyphenoxy)decanoyl))-αMeY-LIK(((2-[2-(2-Amino-ethoxy)-ethoxy]-acetyl)2--Trx-(γ-Glu)-(10-(4-carboxyphenoxy)decanoyl))GGPSSGAPPPS-NH2)) [Example 471]",
    "unit.text": "nM",
    "measured.result": 4.36
  },
  {
    "binder": "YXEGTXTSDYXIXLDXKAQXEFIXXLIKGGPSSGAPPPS (Y-Aib-EGT-αMeF(2F)-TSDY-Aib-I-αMeL-LD-Orn-K((2-[2-(2-Amino-ethoxy)-ethoxy]-acetyl)-(γ-Glu)-(10-(4-carboxyphenoxy)decanoyl))AQ-Aib-EFI-(D-Glu)-αMeY-LIK((2-[2-(2-Amino-ethoxy)-ethoxy]-acetyl)-(γ-Glu)-(10-(4-carboxyphenoxy)decanoyl))GGPSSGAPPPS-NH2) [Example 373]",
    "unit.text": "nM",
    "measured.result": 37.4
  },
  {
    "binder": "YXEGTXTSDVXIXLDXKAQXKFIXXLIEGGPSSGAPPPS (Y-Aib-EGT-αMeF(2F)-TSDV-Aib-I-αMeL-LD-Orn-K((2-[2-(2-Amino-ethoxy)-ethoxy]-acetyl)-(γ-Glu)-(10-(4-carboxyphenoxy)decanoyl))AQ-Aib-K((2-[2-(2-Amino-ethoxy)-ethoxy]-acetyl)-(γ-Glu)-(10-(4-carboxyphenoxy)decanoyl))FI-(D-Glu)-αMeY-LIEGGPSSGAPPPS-NH2) [Example 378]",
    "unit.text": "nM",
    "measured.result": 47.7
  },
  {
    "binder": "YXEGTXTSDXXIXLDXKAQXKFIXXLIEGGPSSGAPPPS (Y-Aib-EGT-αMeF(2F)-TSD-4Pal-Aib-I-αMeL-LD-Orn-K((2-[2-(2-Amino-ethoxy)-ethoxy]-acetyl)2-(γ-Glu)-CO-(CH2)12-CO2H)AQ-Aib-K((2-[2-(2-Amino-ethoxy)-ethoxy]-acetyl)2-(γ-Glu)-CO-(CH2)12-CO2H)FI-(D-Glu)-αMeY-LIEGGPSSGAPPPS-NH2) [Example 357]",
    "unit.text": "nM",
    "measured.result": 36.2
  },
  {
    "binder": "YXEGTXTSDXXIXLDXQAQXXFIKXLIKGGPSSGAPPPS (Y-Aib-EGT-αMeF(2F)-TSD-4Pal-Aib-I-αMeL-LD-Orn-QAQ-Aib-4Pal-FIK((2-[2-(2-Amino-ethoxy)-ethoxy]-acetyl)2-(γ-Glu)-(10-(4-carboxyphenoxy)decanoyl))-αMeY-LIK((2-[2-(2-Amino-ethoxy)-ethoxy]-acetyl)2-(γ-Glu)-(10-(4-carboxyphenoxy)decanoyl))GGPSSGAPPPS-NH2) [Example 493]",
    "unit.text": "nM",
    "measured.result": 7.24
  },
  {
    "binder": "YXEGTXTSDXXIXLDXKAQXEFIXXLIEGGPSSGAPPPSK (Y-Aib-EGT-αMeF(2F)-TSD-4Pal-Aib-I-αMeL-LD-Orn-K((2-[2-(2-Amino-ethoxy)-ethoxy]-acetyl)-(γ-Glu)-CO-(CH2)10-CH3)AQ-Aib-EFI-(D-Glu)-αMeY-LIEGGPSSGAPPPSK((2-[2-(2-Amino-ethoxy)-ethoxy]-acetyl)-(γ-Glu)-CO-(CH2)10-CH3)-NH2) [Example 428]",
    "unit.text": "nM",
    "measured.result": 10.2
  }
]
